Values of pIC50 for Xanthine dehydrogenase/oxidase (Bos taurus), collected from a number of published sources:
Keep it numeric: pIC50 is minus log10 of the concentration in mol/L.

Sample answers from the record:
[[record]]
cpd_smiles = "Cc1nc(-c2ccc(C(=O)O)cc2)sc1C(=O)O"
target_desc = "Xanthine dehydrogenase/oxidase (Bos taurus)"
observed_result = 8.49

[[record]]
cpd_smiles = "Cc1nc(-c2ccc(N3CCCCC3)c(C#N)c2)sc1C(=O)O"
target_desc = "Xanthine dehydrogenase/oxidase (Bos taurus)"
observed_result = 8.57

[[record]]
cpd_smiles = "Cc1nc(-c2ccc(N(C)C)cc2)sc1C(=O)O"
target_desc = "Xanthine dehydrogenase/oxidase (Bos taurus)"
observed_result = 7.37

[[record]]
cpd_smiles = "CS(=O)(=O)NCCCOc1ccc2c(C#N)cn(-c3ccc(C(=O)O)c(O)c3)c2c1"
target_desc = "Xanthine dehydrogenase/oxidase (Bos taurus)"
observed_result = 8.01


Lab note: molecule Cc1ccc2c(C#N)cc(-c3ccc(C(=O)O)c(O)c3)n2c1 tested on Xanthine dehydrogenase/oxidase (Bos taurus); recorded pIC50 was 8.30

The measured pIC50 that Cc1cc2c(cc1OCc1ccccc1)c(C#N)cn2-c1ccc(C(=O)O)cc1 showed for Xanthine dehydrogenase/oxidase (Bos taurus) is 7.42

Form field, pIC50 with Xanthine dehydrogenase/oxidase (Bos taurus), item CC(C)(C)c1ccn2c(-c3ccc(C(=O)O)c(O)c3)cc(C#N)c2c1 : 8.70

Record Cc1nc(-c2ccc(OCCN3CCCCC3)c(Cl)c2)sc1C(=O)O ; system Xanthine dehydrogenase/oxidase (Bos taurus); pIC50 = 8.92

Bench note, Xanthine dehydrogenase/oxidase (Bos taurus): N#Cc1cn(-c2ccc(C(=O)O)cc2)c2cc3c(cc12)OCO3 , pIC50 reads 7.31

###

What follows is literature data on IC50 for Xanthine dehydrogenase/oxidase (Bos taurus, UniProt P80457).
Your answer should be a plain number; it is taken to be in nM.

The examples below pair each entry with its known result.
[[record]]
cpd_smiles = "CC(C)CSc1ccc(-c2cnccc2C(=O)O)cc1C#N"
units_label = "nM"
observed_result = 2.5

[[record]]
cpd_smiles = "N#Cc1cc(-c2ccc(C(=O)O)cc2)n2ccc(C(F)(F)F)cc12"
units_label = "nM"
observed_result = 10

[[record]]
cpd_smiles = "CC(C)Cn1ccc2cc(-c3cc(C(=O)O)ccn3)cc([N+](=O)[O-])c21"
units_label = "nM"
observed_result = 13

[[record]]
cpd_smiles = "CC(C)c1ccc2c(C#N)cn(-c3ccc(C(=O)O)c(O)c3)c2c1"
units_label = "nM"
observed_result = 12.6

[[record]]
cpd_smiles = "Cc1nc(-c2ccc(OCC(C)C)c(F)c2)sc1C(=O)O"
units_label = "nM"
observed_result = 1.5


Record N#Cc1cn(-c2ccc(C(=O)O)c(O)c2)c2ccsc12 , field IC50: 10

# molecule CCCCCCOc1ccc(-c2nc(C)c(C(=O)O)s2)cc1[N+](=O)[O-] ; its IC50 = 0.32

Recorded result, Cc1ccc2c(-c3ccc(C(=O)O)c(O)c3)cc(C#N)n2c1C , IC50: 13

For reference, reported IC50 for N#Cc1cn(-c2ccc(C(=O)O)c(N)c2)c2ccccc12 stands at 175

Consider Cc1nc(-c2ccc(N3CCOCC3)c([N+](=O)[O-])c2)sc1C(=O)O . Its measured IC50 is 1.8

# IC50 of Cc1ccnn2c(-c3ccc(C(=O)O)cc3)cc(C#N)c12 = 10

IC50 in this record for CCOCCOc1ccc(-c2nc(C)c(C(=O)O)s2)cc1Br : 2.9

IC50 for Cc1nc(-c2cccc(OC(C)C)c2)sc1C(=O)O is 67

In plain terms, CCCCOc1ccc2c(C#N)cn(-c3ccc(C(=O)O)c(O)c3)c2c1 has a documented IC50 of 71.5

Sure, the documented IC50 for N#Cc1cn(-c2ccc(C(=O)O)cc2)nc1-c1ccccc1C(F)(F)F is 8.47

Measured IC50, N#Cc1cc(-c2ccc(C(=O)O)c(O)c2)c2ccccn12 : 12

Just so you know, measured IC50 for N#Cc1cn(-c2ccc(C(=O)O)cc2)c2ccc(OCc3cccs3)cc12 came out at 14.6

Documented IC50 of Cc1nc(-c2ccc([N+](=O)[O-])cc2)sc1C(=O)O : 900

Briefly, IC50 measured for Cc1nc(-c2ccc(OC(C)C)c(Cl)c2)sc1C(=O)O : 2.4

Record CCOc1ccc2c(c1)c(C#N)cn2-c1ccc(C(=O)O)c(O)c1 . Reported IC50: 11

Lab note: Cc1nc(-c2ccc(OC(C)C)cc2)sc1C(=O)O gave IC50 of 28

CCCOc1ccc2c(C#N)cn(-c3ccc(C(=O)O)c(O)c3)c2c1 yielded IC50 of 9.4

The molecule listed as N#Cc1cc(-c2ccc(C(=O)O)cc2)n2ncccc12 has a reported IC50 of 12

// field: IC50; key: Cc1nc(-c2ccc(OCC(=O)O)cc2)sc1C(=O)O ; value = 77

The molecule listed as COc1ccc(-c2cn(-c3ccc(C(=O)O)cc3)cc2C#N)cc1 shows IC50 equal to 3.56

###

Record: compiled IC50 on Xanthine dehydrogenase/oxidase (Bos taurus, UniProt P80457) from multiple reports.

Worked examples follow.
[[record]]
cpd_smiles = "Cc1ccn2c(-c3ccc(C(=O)O)cc3)cc(C#N)c2c1C"
target_desc = "Xanthine dehydrogenase/oxidase (Bos taurus, UniProt P80457)"
observed_result = "5 nM"

[[record]]
cpd_smiles = "N#Cc1cn(-c2ccc(C(=O)O)cc2)c2ccc(OCC(=O)O)cc12"
target_desc = "Xanthine dehydrogenase/oxidase (Bos taurus, UniProt P80457)"
observed_result = "20 nM"

[[record]]
cpd_smiles = "N#Cc1cccc2c1c(C#N)cn2-c1ccc(C(=O)O)c(O)c1"
target_desc = "Xanthine dehydrogenase/oxidase (Bos taurus, UniProt P80457)"
observed_result = "6 nM"

[[record]]
cpd_smiles = "N#Cc1cc(-c2cc(C(=O)O)ccn2)ccc1OC1CCOCC1"
target_desc = "Xanthine dehydrogenase/oxidase (Bos taurus, UniProt P80457)"
observed_result = "4.1 nM"

[[record]]
cpd_smiles = "N#Cc1cn(-c2ccc(C(=O)O)cc2)c2ccc(OCc3ccsc3)cc12"
target_desc = "Xanthine dehydrogenase/oxidase (Bos taurus, UniProt P80457)"
observed_result = "18.3 nM"

[[record]]
cpd_smiles = "Cc1nc(-c2ccc(OCCN3CCOCC3)c(Cl)c2)sc1C(=O)O"
target_desc = "Xanthine dehydrogenase/oxidase (Bos taurus, UniProt P80457)"
observed_result = "1.5 nM"

[[record]]
cpd_smiles = "Cc1nc(-c2ccc(OCC(C)(C)C)c(Cl)c2)sc1C(=O)O"
target_desc = "Xanthine dehydrogenase/oxidase (Bos taurus, UniProt P80457)"
observed_result = "2.9 nM"

[[record]]
cpd_smiles = "N#Cc1cn(-c2ccc(C(=O)O)c(O)c2)c2ccc(Cl)cc12"
target_desc = "Xanthine dehydrogenase/oxidase (Bos taurus, UniProt P80457)"
observed_result = "9 nM"


Tested system Xanthine dehydrogenase/oxidase (Bos taurus, UniProt P80457); IC50 recorded for N#Cc1cn(-c2ccc(C(=O)O)cc2)c2cc(-c3ccccc3)ccc12 was 112 nM

###

Several publications report IC50 on Xanthine dehydrogenase/oxidase (Bos taurus, UniProt P80457); those values are gathered here.
# strict inequality: IC50 < 5 nM yields yes, everything else yields no

Answered examples (3):
[[record]]
cpd_smiles = "CC(C)COc1ccc(-c2ccc(C(=O)O)s2)cc1[N+](=O)[O-]"
assigned_label = "no"

[[record]]
cpd_smiles = "CCOCCOc1ccc2c(C#N)cn(-c3ccc(C(=O)O)c(O)c3)c2c1"
assigned_label = "no"

[[record]]
cpd_smiles = "COc1ccc2c(-c3ccc(C(=O)O)c(O)c3)cc(C#N)n2n1"
assigned_label = "yes"


In: Identify whether the molecule N#Cc1cc(-c2cc(C(=O)O)ccn2)ccc1OCCOc1ccccc1 records IC50 below 5 nM.
Out: yes

In: Hello, is IC50 of the following molecule strictly smaller than 5 nM? Cc1cc2c(C#N)cn(-c3ccc(C(=O)O)cc3)c2cc1F
Out: no

###

pIC50 values for Xanthine dehydrogenase/oxidase (Bos taurus, UniProt P80457) compiled from several publications are listed below.
// returns pIC50 (minus log10 of molar concentration), number only

Below are worked cases with known answers.
[[record]]
cpd_smiles = "CN(C)CCOc1ccc2c(C#N)cn(-c3ccc(C(=O)O)c(O)c3)c2c1"
target_desc = "Xanthine dehydrogenase/oxidase (Bos taurus, UniProt P80457)"
quantity_measured = "pIC50"
observed_result = 7.85

[[record]]
cpd_smiles = "CC(C)Oc1ccc2c(c1)c(C#N)cn2-c1ccc(C(=O)O)c(O)c1"
target_desc = "Xanthine dehydrogenase/oxidase (Bos taurus, UniProt P80457)"
quantity_measured = "pIC50"
observed_result = 7.96

[[record]]
cpd_smiles = "Cc1ccc(-c2nn(-c3ccc(C(=O)O)cc3)cc2C#N)cc1"
target_desc = "Xanthine dehydrogenase/oxidase (Bos taurus, UniProt P80457)"
quantity_measured = "pIC50"
observed_result = 8.31


# pIC50 (molecule: CC(C)Oc1cc2c(C#N)cn(-c3ccc(C(=O)O)cc3)c2cc1F ) is 8.00

Lab note: measured pIC50 of N#Cc1cn(-c2ccc(C(=O)O)c(O)c2)c2cscc12 was 8.00
